System: MS2 coat protein
measurement protocol: apparent KD of MS2 coat protein; designed switch direction (-1 OFF switch, 1 ON switch): -1; higher = weaker reporter binding
condition set: input ligand: none

residue sequence	tested target	apparent KD of MS2 coat protein [nM]
CACCUGAACACAGGAUAUCCUACAUGAGGAUCACCCAUGUAAUAAAUGAGAAUUUCGAAUGUAAUGGAGAAGGGUGGAUAAGGC [Ostracism 89 - Jieux - Exclusion NG 2] (Eterna round: R96, puzzle: Exclusion NG 2)	MS2 coat protein	97.2
AAUAUCACAGGAUAUCCGGAUUUGUACAUGAGGAUCACCCAUGUGGUGACGUAGAACUCCGGAGAAGGGUGUCCAG [Eternabot (L2) Solution 89] (Eterna round: R97, puzzle: Exclusion 5)	MS2 coat protein	161
AUAAGUGAUAAGGAUAUUACUAGCUUCGGCUAGUGAGAAGGUAUCACAUGAGGAUCACCCAUGUGUUCCAAUAA [Ex6/7-B1] (Eterna round: R97, puzzle: Exclusion 6)	MS2 coat protein	119
UCAUGUUAGCAGGAUAUGCUAUUUAUUUUUUAUGCAGAAGGGCUUACAUGAGGAUCACCCAUGUGUUAGGUUUU [JR_E6_Sub073] (Eterna round: R96, puzzle: Exclusion 6)	MS2 coat protein	70.6
ACAGUGUUAGGAUAUGUGAGAGUUAGUCUCGACUAGUCGAAGCAGAAGGAACAUGAGGAUCACCCAUGUAGAUC [EX4 #78] (Eterna round: R97, puzzle: Exclusion 4)	MS2 coat protein	46.7
AAACCUGAAGUCAGGAUAUGAAGUAUCACUGUACUUCAGAAGGGACUUGAGGAUCACCCAAGUAGCCGUGAGGC [jl-bmx4.4.67 ViennaUCT mod] (Eterna round: R97, puzzle: Brourd's mod of Exclusion 4)	MS2 coat protein	28.8
GGCCGGGCAGGAUAUGCGUGGGUCCUCAUGAGGACCCACGUACAUGAGGAUCACCCAUGUAGAAGGGCCCGGCC (Eterna round: R97, puzzle: Exclusion 2)	MS2 coat protein	14.2
CCCUCACUUGAGGAUCACCCAAGUCAGGAUAUCUCCCACCCGGCAACAACCGGGUGCCAGAGAAGGGACUCAAA [Xemaques] (Eterna round: R97, puzzle: Exclusion 1)	MS2 coat protein	17
UAUUAGCAAGCGAGAUCCCACAUGAGGAUCACCCAUGUAGCAUCCAGAAUUACUGGGUGCAAAAGCUCGUCUUAUUA [Winner reversed engineered 4] (Eterna round: R97, puzzle: Sensor, turn-off variant 1)	MS2 coat protein	26.1
ACCAAUCAUGUAGGAUAUGCGUGGCGAAGCUAUGCAGAAGGACAUGAGGAUCACCCAUGUGCUUCCGUCUGCGUACAGACGGUA [Mat - Exclusion NG 1 - Mod of JL - D17] (Eterna round: R96, puzzle: Exclusion NG 1)	MS2 coat protein	92.3

Reference source for all entries: the supplement of paper PMC9170038
